- system.under.test: T1, monkey MSR1 extracellular domain expressed with a N-terminal hexahistidine-myc-myc tag (HMM-mfMSR1) (monkey (Macaca fascicularis))
- T1 chain: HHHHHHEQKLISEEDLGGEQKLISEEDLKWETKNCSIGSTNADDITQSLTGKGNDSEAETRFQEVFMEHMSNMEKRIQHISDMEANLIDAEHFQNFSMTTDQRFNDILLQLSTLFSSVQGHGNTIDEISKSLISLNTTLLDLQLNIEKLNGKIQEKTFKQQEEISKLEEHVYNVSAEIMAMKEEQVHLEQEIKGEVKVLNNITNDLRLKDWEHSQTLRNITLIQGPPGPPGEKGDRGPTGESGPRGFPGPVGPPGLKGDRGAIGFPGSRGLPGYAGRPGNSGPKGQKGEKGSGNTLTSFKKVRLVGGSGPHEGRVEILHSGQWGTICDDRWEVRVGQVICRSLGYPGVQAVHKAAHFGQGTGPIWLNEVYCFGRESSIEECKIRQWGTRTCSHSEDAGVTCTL
- assay.overview: SPR Biacore, 25 C, antibody captured;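 note: rates from 1:1 fit with mass transport limitation of real-time sensorgrams, HEPES-buffered saline with EDTA and Tween-20 at pH 7.4, KD and t½ derived from the kinetic rates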
pKd: −log10 of the molar value.
Attribute: pKd
property.label: pKd

- binder: "H1H27729P-N297Q (antibody, V domains shown, Human IgG1 Fc with N297Q point mutation) VH: QVQLVESGGGLVKPGGSLRLSCAASGFIFSDYYMSWIRQAPGKGLEWVSYISSSGTTIYGDSVKGRFTMSRDNAKNSLYLQMNSLRAEDTAVYYCARNYALFDYWGQGTLVTVSS VL: DIQMTQSPSSLSASVGDRVTITCQASQDISKYLNWYQQKPGKAPKLLIYYTSNLETGVPSRFSGSGSGTDFTFTISSLQPEDIATYYCHQSDYLPFTFGPGTKVDIKR"
  value.observed: 8.10
- binder: "H1H27734P-N297Q (antibody, V domains shown, Human IgG1 Fc with N297Q point mutation) VH: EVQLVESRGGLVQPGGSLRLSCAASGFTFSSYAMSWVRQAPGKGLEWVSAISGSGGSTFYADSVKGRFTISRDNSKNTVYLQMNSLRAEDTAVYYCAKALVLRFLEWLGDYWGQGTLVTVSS VL: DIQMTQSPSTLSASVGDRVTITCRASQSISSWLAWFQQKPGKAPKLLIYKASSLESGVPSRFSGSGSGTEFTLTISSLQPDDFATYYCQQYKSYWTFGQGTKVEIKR"
  value.observed: 8.16
- binder: "H1H27754P-N297Q (antibody, V domains shown, Human IgG1 Fc with N297Q point mutation) VH: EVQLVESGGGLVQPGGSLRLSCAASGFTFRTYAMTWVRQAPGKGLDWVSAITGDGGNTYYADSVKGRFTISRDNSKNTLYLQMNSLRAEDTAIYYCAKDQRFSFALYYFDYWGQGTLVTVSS VL: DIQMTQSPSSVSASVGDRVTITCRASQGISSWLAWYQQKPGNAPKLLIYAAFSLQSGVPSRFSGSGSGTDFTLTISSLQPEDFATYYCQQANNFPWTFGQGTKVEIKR"
  value.observed: 10.12
- binder: "H1H27747P-N297Q (antibody, V domains shown, Human IgG1 Fc with N297Q point mutation) VH: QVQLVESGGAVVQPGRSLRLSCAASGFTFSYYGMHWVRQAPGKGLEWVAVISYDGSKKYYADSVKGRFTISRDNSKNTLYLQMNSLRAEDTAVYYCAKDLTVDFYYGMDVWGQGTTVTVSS VL: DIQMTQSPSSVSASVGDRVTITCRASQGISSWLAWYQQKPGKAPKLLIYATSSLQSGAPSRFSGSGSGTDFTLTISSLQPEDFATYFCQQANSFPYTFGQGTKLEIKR"
  value.observed: 8.42
